Experiment: in vitro
Conditions: human, serum, serum stability, amount remaining, Figure S15
PARAMETER_MEASURED: remaining at 40 min (%)
Your answer should be a plain number; it is taken to be in %.

Request: Supply remaining at 40 min value. Item: CC[C@H](C)[C@H](NC(=O)[C@H](CCCN=C(N)N)NC(=O)[C@H](CCCN=C(N)N)NC(=O)[C@H](CC(C)C)NC(=O)[C@H](Cc1ccccc1)NC(=O)CNC(=O)CNC(=O)[C@@H](N)Cc1ccc(O)cc1)C(=O)N[C@@H](CCCN=C(N)N)C(=O)N1CCC[C@H]1C(=O)N[C@@H](CCCCN)C(=O)N[C@@H](CC(C)C)C(=O)N[C@@H](CCCCN)C(N)=O [dynA1-13]
Result: 33

Hey, just so you know, these numbers are from paper PMC10698194.
